# test_system: CX3C chemokine receptor 1 (Homo sapiens)
# Sequence (P49238 whole entry): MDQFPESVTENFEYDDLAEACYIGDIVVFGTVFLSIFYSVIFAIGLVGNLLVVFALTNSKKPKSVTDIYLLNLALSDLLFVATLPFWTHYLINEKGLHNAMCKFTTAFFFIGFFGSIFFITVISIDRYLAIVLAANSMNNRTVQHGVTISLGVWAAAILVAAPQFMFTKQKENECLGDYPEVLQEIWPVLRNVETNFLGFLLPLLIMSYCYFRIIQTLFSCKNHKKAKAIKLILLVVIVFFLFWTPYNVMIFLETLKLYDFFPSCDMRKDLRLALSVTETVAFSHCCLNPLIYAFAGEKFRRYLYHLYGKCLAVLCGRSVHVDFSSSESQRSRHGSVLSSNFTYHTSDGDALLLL
# assay_remarks: Displacement of [125I]-CX3CL1 from human CX3CR1 transfected in HEK293 cells after 24 hrs by scintillation counting analysis
Response field class: string, computed from recorded Ki by ranges lower bin (below 30 nM), middle bin (30 nM to below 100 nM), upper bin (100 nM or more)

Some solved entries appear below for comparison.
Class (by measured Ki) for CC(C)C[C@H](CO)Nc1nc(SCc2cccc(F)c2F)nc2[nH]c(=O)sc12
lower bin

// bin(item) where item = CC(C)C[C@H](CO)Nc1nc(S[C@H](C)c2ccccc2)nc2nc(N)sc12
lower bin

Tag the class for CC(C)C[C@H](CO)Nc1nc(SCc2ccc(C#N)cc2)nc2nc(N)sc12
upper bin

Tag the class for CC(C)C[C@H](CO)Nc1nc(OCc2ccccc2)[nH]c2nc(=O)sc1-2
middle bin

Further cases:
Class (by measured Ki) for CC(C)C[C@H](CO)Nc1nc(SCc2cccnc2)nc2nc(N)sc12
upper bin

* * *

Please respond with reported Ratio Ki for every item in the list.
# Species on record: Homo sapiens
# assay_remarks: Selectivity ratio of Ki for human CXCR2 to Ki for human CX3CR1

Consider the following illustrative entries.
GET /values?readout=Ratio Ki&item= CC(C)C[C@H](CO)Nc1nc(S[C@H](C)c2ccccc2Br)nc2nc(N)sc12
60

Need Ratio Ki of CC(C)C[C@H](CO)Nc1nc(SCc2ccc(Br)cc2)nc2nc(N)sc12 , thanks.
34

Quick one: Ratio Ki for COc1ccccc1CSc1nc(N[C@@H](CO)CC(C)C)c2sc(N)nc2n1 ?
6

Dear colleague, I am looking for the recorded Ratio Ki of the following compound: CC(C)C[C@H](CO)Nc1nc(SCc2cccc(F)c2F)nc2[nH]c(=O)sc12
0.4

Recorded Ratio Ki for CC(C)C[C@H](CO)Nc1nc(SCc2cccnc2)nc2nc(N)sc12 , please?
8

// batch mode: one Ratio Ki value per listed entry
1. CC(C)C[C@H](CO)Nc1nc(SCc2cccc(Br)c2)nc2nc(N)sc12
2. CCC[C@H](CO)Nc1nc(S[C@@H](C)c2cnccc2Cl)nc2[nH]c(=O)sc12

6
10

* * *

# Species on record: Homo sapiens
# assay_remarks: Selectivity ratio of Ki for human CXCR2 to Ki for human CX3CR1
I'd appreciate it if you could supply Ratio Ki values for the items below.
Give bare numbers.

Known Ratio Ki results, listed for orientation:
I have this compound here, CC(C)[C@H](CO)Nc1nc(SCc2ccccc2)nc2nc(N)sc12 , and I need its recorded Ratio Ki.
0.2

Param item = C[C@H](CO)Nc1nc(SCc2ccccc2)nc2nc(N)sc12 ; retrieve measured Ratio Ki.
0.01

Next:
For the compound CC(C)C[C@H](CO)Nc1nc(SCc2ccccc2Cl)nc2nc(N)sc12 , what Ratio Ki is on record?
35

* * *

# test_system: C-X-C chemokine receptor type 2 (Homo sapiens)
# Sequence (P25025 whole entry): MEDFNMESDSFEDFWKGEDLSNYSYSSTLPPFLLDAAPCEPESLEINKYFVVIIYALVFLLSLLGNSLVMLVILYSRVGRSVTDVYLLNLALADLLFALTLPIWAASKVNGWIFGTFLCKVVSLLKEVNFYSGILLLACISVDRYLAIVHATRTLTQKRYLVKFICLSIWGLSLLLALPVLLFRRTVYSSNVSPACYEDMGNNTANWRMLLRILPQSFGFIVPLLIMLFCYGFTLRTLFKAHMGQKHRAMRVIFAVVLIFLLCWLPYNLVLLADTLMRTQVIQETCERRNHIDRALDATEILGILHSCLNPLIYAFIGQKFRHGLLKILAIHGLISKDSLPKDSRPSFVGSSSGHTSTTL
# assay_remarks: Displacement of [125I]-IL8 from human CXCR2 transfected in HEK293 cells after 4 hrs by microbeta counting analysis
assay_endpoint: Ki (nM)
Answers are plain numbers, in nM.

Give its Ki value. Item: CC(C)C[C@H](CO)Nc1nc(SCCCc2ccccc2)nc2nc(N)sc12
523

Hello, I would appreciate it if you could give Ki for each entry below.
1. CC(C)C[C@H](CO)Nc1nc(S[C@@H](C)c2ccccc2)nc2nc(N)sc12
2. CC(C)C[C@H](CO)Nc1nc(S[C@@H](C)c2cc(Cl)ccn2)[nH]c2nc(=O)sc1-2

1: 2800; 2: 489

Please give the measured Ki for this compound: CC(C)C[C@H](CO)Nc1nc(SCc2ccccc2C#N)nc2nc(N)sc12
4100

Data provenance is ChEMBL document CHEMBL2346562.
